Data credit: PubChem BioAssay (NCI)

# Test system: UACC-257 melanoma
# experiment description: NCI tumour cell line growth inhibition, 48 h; in the data active means GI50 below about 0.43 µM; inactive means the rest
Labels: label 1 = active, label 0 = inactive

* COc1ccc(CC(C)=C(c2ccc(OCCN3CCCCCC3)cc2)c2ccc(OCCN3CCCCCC3)cc2)cc1 | label 1
* CCCCCCCCCCS(=O)CC(CO)NC(=O)/C=C/c1c(C)[nH]c(=O)[nH]c1=O (stereo not drawn) | label 0
* CN(C)c1cc[n+](/C(NS(=O)(=O)c2cc(C(=O)Nc3ccc(Cl)cc3)c(Cl)cc2[S-])=C(\C#N)C(=O)c2ccccc2)cc1 | label 0
* CC(=O)/C=C/c1ccc(OCc2ccc(C(C)(C)C)cc2)cc1 | label 0
* O=C(Nc1nc(-c2ccc(Cl)cc2)cs1)c1cc(-c2ccc(Br)cc2)nc2ccc(Cl)cc12 | label 0
* Cn1ncc(NC(=O)c2nc(-c3c(F)cccc3F)sc2N)c1N1CC[C@@H](N)[C@H](F)CC1 | label 0
* CC(C)=CCC/C(C)=C/CC/C(C)=C/CC/C(C)=C/CSC[C@H](NC(=O)CCCCCN1CCN(C)CC1)C(=O)NC1CCCCC1 | label 0
* CC(=O)NS(=O)(=O)c1ccc(-n2nc(-c3ccc(Cl)cc3)cc2-c2cc(O)ccc2O)cc1 | label 0
